target: T1, Rhesus macaque CD4-HIS (Acro Biosystems, Cat. CD4-C52H7) (rhesus macaque, UniProt P16003 26-390); experiment: BLI (Octet Red384); Ab on anti-mouse Fc (AMC) sensor; rhesus CD4-HIS 100/50/25 nM; global 1:1 fit;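 note: antibodies loaded at 10 µg/mL, an unrelated mouse-derived antibody served as internal reference, curves fit over association and dissociation phases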
T1 construct: Bought reagent; also called Rhesus CD4; rhesus CD4-HIS; not shown: His tag
T1 sequence (P16003 26-390 limits assumed): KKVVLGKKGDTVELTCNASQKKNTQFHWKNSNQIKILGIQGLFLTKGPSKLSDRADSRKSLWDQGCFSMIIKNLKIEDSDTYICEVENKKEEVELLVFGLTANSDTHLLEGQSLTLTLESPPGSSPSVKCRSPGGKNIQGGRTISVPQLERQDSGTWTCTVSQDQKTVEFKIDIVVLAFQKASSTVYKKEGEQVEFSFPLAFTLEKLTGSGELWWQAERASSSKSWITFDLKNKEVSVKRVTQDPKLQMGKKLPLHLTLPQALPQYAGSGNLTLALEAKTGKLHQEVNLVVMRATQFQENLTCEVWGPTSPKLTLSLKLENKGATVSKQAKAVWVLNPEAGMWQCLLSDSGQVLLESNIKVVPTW
Overview of reported pKd across a group of binders:
pKd is a log-scale quantity: -log10 of the concentration expressed in molar.

What value of measured pKd is listed for 75110_14N19A (antibody, V domains shown, Tested as antibody purified from AlivaMab Mouse hybridoma supernatant (human variable domains, kappa; mouse Fc, captured on anti-mouse IgG Fc sensors); also called ADS75110 purified AMM Ab) VH: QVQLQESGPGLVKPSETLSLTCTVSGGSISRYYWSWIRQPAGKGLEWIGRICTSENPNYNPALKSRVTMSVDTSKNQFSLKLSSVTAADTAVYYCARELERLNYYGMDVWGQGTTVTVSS VL: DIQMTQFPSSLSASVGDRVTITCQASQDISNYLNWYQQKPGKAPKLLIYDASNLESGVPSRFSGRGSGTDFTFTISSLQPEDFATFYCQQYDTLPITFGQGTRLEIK ?
7.85

What value of measured pKd is listed for 75110_06D16A (antibody, V domains shown, Tested as antibody purified from AlivaMab Mouse hybridoma supernatant (human variable domains, kappa; mouse Fc, captured on anti-mouse IgG Fc sensors); also called ADS75110 purified AMM Ab) VH: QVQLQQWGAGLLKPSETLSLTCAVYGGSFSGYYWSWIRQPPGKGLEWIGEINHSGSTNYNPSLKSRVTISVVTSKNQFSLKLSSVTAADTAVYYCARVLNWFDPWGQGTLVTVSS VL: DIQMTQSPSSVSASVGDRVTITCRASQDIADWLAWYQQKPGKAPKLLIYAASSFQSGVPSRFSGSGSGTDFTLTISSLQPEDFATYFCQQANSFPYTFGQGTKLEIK ?
6.62

What value of measured pKd is listed for 75110_08D24A (antibody, V domains shown, Tested as antibody purified from AlivaMab Mouse hybridoma supernatant (human variable domains, kappa; mouse Fc, captured on anti-mouse IgG Fc sensors); also called ADS75110 purified AMM Ab) VH: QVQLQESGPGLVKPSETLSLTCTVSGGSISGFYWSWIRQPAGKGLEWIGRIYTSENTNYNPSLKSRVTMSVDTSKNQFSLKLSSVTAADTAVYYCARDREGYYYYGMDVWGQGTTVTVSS VL: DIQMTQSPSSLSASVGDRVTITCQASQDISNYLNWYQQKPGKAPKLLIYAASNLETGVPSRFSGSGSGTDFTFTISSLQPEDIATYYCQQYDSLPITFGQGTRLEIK ?
7.28

The measurements presented in this section are drawn from patent US20220112288A1.
